system: HepG2 cells; experiment: Cytotoxicity assessment in vitro (MTT assay); format: cell-based; conditions: human, 24 h, 10 µM
Below, each of the compounds is paired with its reported 1. screening of cytotoxic potential, HepG2 cell line value.
measurementType: 1. screening of cytotoxic potential, HepG2 cell line

compound: COc1c2c(cc3c1OCO3)[C@]13C=C[C@H](OC)C[C@H]1N(C2)C[C@H]3OC(=O)c1cccc([N+](=O)[O-])c1 [28p, 11-O-(3-Nitrobenzoyl)ambelline]
observedValue: 70.36
--
compound: COc1ccccc1C(=O)O[C@@H]1CN2Cc3c(cc4c(c3OC)OCO4)[C@@]13C=C[C@H](OC)C[C@@H]23 [28i, 11-O-(2-Methoxybenzoyl)ambelline]
observedValue: 85.49
--
compound: COc1c2c(cc3c1OCO3)[C@]13C=C[C@H](OC)C[C@H]1N(C2)C[C@H]3OC(=O)c1ccc(C)cc1 [28g, 11-O-(4-Methylbenzoyl)ambelline]
observedValue: 50.18

====

system: HepG2 cells; assay: Cytotoxicity assessment in vitro (MTT assay); format: cell-based; details: c = 10 μM; replicate 2; in %
Below, each of the compounds is paired with its reported 2. screening of cytotoxic potential, HepG2 cell line value.
measurementType: 2. screening of cytotoxic potential, HepG2 cell line

compound: COc1c2c(cc3c1OCO3)[C@]13C=C[C@H](OC)C[C@H]1N(C2)C[C@H]3OC(=O)c1cc(C)cc(C)c1 [28h, 11-O-(3,5-Dimethylbenzoyl)ambelline]
observedValue: 88.22
//
compound: COc1cccc(C(=O)O[C@@H]2CN3Cc4c(cc5c(c4OC)OCO5)[C@@]24C=C[C@H](OC)C[C@@H]34)c1 [28j, 11-O-(3-Methoxybenzoyl)ambelline]
observedValue: 85.98
//
compound: COc1c2c(cc3c1OCO3)[C@]13C=C[C@H](OC)C[C@H]1N(C2)C[C@@H]3O
observedValue: 48.36
//
compound: COc1ccc(C(=O)O[C@@H]2CN3Cc4c(cc5c(c4OC)OCO5)[C@@]24C=C[C@H](OC)C[C@@H]34)cc1 [28k, 11-O-(4-Methoxybenzoyl)ambelline]
observedValue: 89.64
//
compound: COc1cccc2c1C(=O)c1c(O)c3c(c(O)c1C2=O)C[C@@](O)(C(=O)CO)C[C@@H]3O[C@H]1C[C@H](N)[C@H](O)[C@H](C)O1 [Doxorubicine, reference compound]
observedValue: 75.09

====

experiment: Cytotoxicity assessment in vitro (MTT assay); format: cell-based; conditions: human; c = 10 µM, 24 h, MTT; read-out: HepG2 % of cell viability compared to non-treated control (100%)
measurementType: viability at 24 h, 10 µM (%)

compound: COc1c2c(cc3c1OCO3)[C@]13C=C[C@H](OC)C[C@H]1N(C2)C[C@@H]3O [compound 28, ambelline]
unitString: %
observedValue: 50
//
compound: COc1ccc(C(=O)O[C@@H]2CN3Cc4c(cc5c(c4OC)OCO5)[C@@]24C=C[C@H](OC)C[C@@H]34)cc1 [28k, 11-O-(4-Methoxybenzoyl)ambelline]
unitString: %
observedValue: 88
//
compound: COc1cccc(C(=O)O[C@@H]2CN3Cc4c(cc5c(c4OC)OCO5)[C@@]24C=C[C@H](OC)C[C@@H]34)c1 [28j, 11-O-(3-Methoxybenzoyl)ambelline]
unitString: %
observedValue: 81
//
compound: COc1c2c(cc3c1OCO3)[C@]13C=C[C@H](OC)C[C@H]1N(C2)C[C@H]3OC(=O)c1cc(C)cc(C)c1 [28h, 11-O-(3,5-Dimethylbenzoyl)ambelline]
unitString: %
observedValue: 74
